# targetOrTestSystem: Cytochrome P450 3A4 (Homo sapiens, UniProt P08684)
# Sequence (P08684 whole entry): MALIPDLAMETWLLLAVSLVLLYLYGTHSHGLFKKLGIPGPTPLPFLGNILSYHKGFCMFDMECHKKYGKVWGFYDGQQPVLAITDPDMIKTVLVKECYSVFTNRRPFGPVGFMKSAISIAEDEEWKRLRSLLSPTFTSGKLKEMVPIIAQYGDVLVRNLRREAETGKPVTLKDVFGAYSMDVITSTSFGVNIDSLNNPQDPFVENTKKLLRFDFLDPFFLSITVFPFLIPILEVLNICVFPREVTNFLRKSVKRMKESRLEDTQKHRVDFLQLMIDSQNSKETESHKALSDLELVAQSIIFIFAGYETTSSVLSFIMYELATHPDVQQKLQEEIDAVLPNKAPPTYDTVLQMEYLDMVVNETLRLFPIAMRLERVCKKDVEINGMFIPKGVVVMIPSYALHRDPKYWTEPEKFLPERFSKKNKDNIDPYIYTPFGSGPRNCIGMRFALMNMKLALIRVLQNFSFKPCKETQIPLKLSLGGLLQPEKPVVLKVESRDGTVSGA
propertyLabel: IC50 (µM)
Write down the numeric answer in µM and omit the unit.

Q) Provide the documented IC50 with Cytochrome P450 3A4 (Homo sapiens, UniProt P08684) as the system for O=C(CCCCCCC(=O)Nc1ccccc1)NOC(c1ccccc1)(c1ccccc1)c1ccccc1
A) 5.56

* * *

# Test system: Leishmania major
# assayComment: Antileishmanial activity against Leishmania major MON-4 intracellular amastigotes
# Format: functional, organism-based
propertyLabel: IC50
Units required after the number.

Q) # IC50 lookup, item MEGLUMINE ANTIMONATE
A) 101 µM
